Data credit: patent US10385108B2

# tested_on: MC1R (Homo sapiens, UniProt Q01726)
# Sequence (Q01726 whole entry): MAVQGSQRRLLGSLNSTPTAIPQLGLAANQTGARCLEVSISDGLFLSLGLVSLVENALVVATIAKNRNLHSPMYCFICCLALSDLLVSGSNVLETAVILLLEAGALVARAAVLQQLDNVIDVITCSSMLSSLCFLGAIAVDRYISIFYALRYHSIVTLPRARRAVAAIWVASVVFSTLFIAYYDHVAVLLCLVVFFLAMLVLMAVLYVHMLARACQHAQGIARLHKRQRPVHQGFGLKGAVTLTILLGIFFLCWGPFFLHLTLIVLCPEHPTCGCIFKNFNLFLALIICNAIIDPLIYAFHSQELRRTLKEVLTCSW
# experimental_protocol: Competitive binding with 125I-NDP-MSH, HEK293 membrane preparations, MC1R
# measurement_conditions: Ki MC1R, competition with 125I-NDP-MSH
Where a SMILES comes first, the peptide text is derived from it. [ ]: non-standard residue; d: D form.
property_label: pKi
Keep it numeric: pKi is minus log10 of the concentration in mol/L.

Prompt: Request the reported pKi associated with CSCC[C@@H](NC(=O)[C@@H](CCC(=O)O)NC(=O)[C@@H](Cc1c[nH]c2ccccc12)NC(=O)[C@@H](Cc1ccccc1)NC(=O)[C@@H](CCCNC(=N)N)NC(=O)[C@@H](Cc1c[nH]c2ccccc12)NC(=O)CNC(=O)[C@@H](CCCCN)NC(=O)[C@H]1CCCN1C(=O)[C@H](NC(C)=O)C(C)C)C(=O)N[C@H](CO)C(=O)N[C@H](Cc1ccc(O)cc1)C(=O)N[C@H](CO)C(N)=O [compound 873, vpkGwrfwemsys] (Ac-[dV][dP][dK]G[dW][dR][dF][dW][dE][dM][dS][dY][dS]-NH2)
Response: 5.72

---

# tested_on: MC1R (Homo sapiens, UniProt Q01726)
# experimental_protocol: Competitive binding with 125I-NDP-MSH, HEK293 membrane preparations, MC1R;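 further: Read-out: receptor-bound radioligand retained by filtration and counted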
# measurement_conditions: Ki MC1R, competition with 125I-NDP-MSH
Where a SMILES comes first, the peptide text is derived from it. [ ]: non-standard residue; d: D form.
# Lookup of reported Ki keyed by entry
State the result as a value with its unit after it.

These recorded examples may help you get a feel for the data.
molecule	Ki
CSCC[C@@H](NC(=O)[C@@H](CCC(=O)O)NC(=O)[C@@H](Cc1c[nH]cn1)NC(=O)[C@@H](CC1CCCCC1)NC(=O)[C@@H](CCCNC(=N)N)NC(=O)[C@@H](Cc1c[nH]c2ccccc12)NC(=O)CNC(=O)[C@@H](CCCCN)NC(=O)[C@H]1CCCN1C(=O)[C@H](NC(C)=O)C(C)C)C(=O)N[C@H](CO)C(=O)N[C@H](Cc1ccc(O)cc1)C(=O)N[C@H](CO)C(N)=O	2.2 nM
CSCC[C@@H](NC(=O)[C@@H](CCC(=O)O)NC(=O)[C@@H](Cc1c[nH]cn1)NC(=O)[C@@H](Cc1ccccc1)NC(=O)[C@@H](CCCNC(=N)N)NC(=O)[C@@H](Cc1c[nH]c2ccccc12)NC(=O)CNC(=O)[C@@H](CCCN)NC(=O)[C@H]1CCCN1C(=O)[C@H](NC(C)=O)C(C)C)C(=O)N[C@H](CO)C(=O)N[C@H](Cc1ccc(O)cc1)C(=O)N[C@H](CO)C(N)=O	3 nM

Prompt: Give the measured Ki of CC(C)[C@@H](N)C(=O)N1CCC[C@@H]1C(=O)N[C@H](CCCCN)C(=O)NCC(=O)N[C@H](Cc1c[nH]c2ccccc12)C(=O)N[C@H](CCCNC(=N)N)C(=O)N[C@H](Cc1ccccc1)C(=O)N[C@H](Cc1c[nH]cn1)C(=O)O [847int, vpkGwrfh] (H-[dV][dP][dK]G[dW][dR][dF][dH]-OH) .
Response: 150 nM

---

Recorded Ki, one value per entry.
# tested_on: MC1R (Homo sapiens)
# experimental_protocol: Competitive binding with 125I-NDP-MSH, HEK293 membrane preparations, MC1R
# measurement_conditions: Ki MC1R, competition with 125I-NDP-MSH
Where a SMILES comes first, the peptide text is derived from it. [ ]: non-standard residue; d: D form.
Please give a number only; it is taken to be in nM.

Please review the following examples before continuing.
compound	units_label	Ki
CSCC[C@@H](NC(=O)[C@@H](CCC(=O)O)NC(=O)[C@@H](CCCNC(=N)N)NC(=O)[C@@H](Cc1ccccc1)NC(=O)[C@@H](CCCNC(=N)N)NC(=O)[C@@H](Cc1c[nH]c2ccccc12)NC(=O)CNC(=O)[C@@H](CCCCN)NC(=O)[C@H]1CCCN1C(=O)[C@H](NC(C)=O)C(C)C)C(=O)N[C@H](CO)C(=O)N[C@H](Cc1ccc(O)cc1)C(=O)N[C@H](CO)C(N)=O [compound 872, vpkGwrfremsys]	nM	13.5
CC(=O)N[C@@H](C(=O)N1CCC[C@@H]1C(=O)N[C@H](CCCCN)C(=O)NCC(=O)N[C@H](Cc1c[nH]c2ccccc12)C(=O)N[C@H](CCCNC(=N)N)C(=O)N[C@H](Cc1ccccc1)C(=O)N[C@H](Cc1c[nH]cn1)C(=O)N[C@H](CCC(=O)O)C(=O)N[C@H](CCCCN)C(=O)N[C@H](CO)C(=O)N[C@H](Cc1ccc(O)cc1)C(=O)N[C@H](CO)C(N)=O)C(C)C [compound 879, vpkGwrfheksys] (Ac-[dV][dP][dK]G[dW][dR][dF][dH][dE][dK][dS][dY][dS]-NH2)	nM	832

Then this compound:
Prompt: // Ki lookup, key: CSCC[C@@H](NC(=O)[C@@H](CCC(=O)O)NC(=O)[C@@H](Cc1c[nH]cn1)NC(=O)[C@@H](Cc1ccccc1)NC(=O)[C@H](CCCNC(=N)N)NC(=O)[C@@H](Cc1c[nH]c2ccccc12)NC(=O)CNC(=O)[C@@H](CCCCN)NC(=O)[C@H]1CCCN1C(=O)[C@H](NC(C)=O)C(C)C)C(=O)N[C@H](CO)C(=O)N[C@H](Cc1ccc(O)cc1)C(=O)N[C@H](CO)C(N)=O [compound 894, vpkGwRfhemsys]
Response: 380
